biological target: NP of A/California/07/2009(H1N1/H1S) (influenza A virus, NYMC X-181 derived …); assay: sandwich ELISA, capture IgG; NP of lysed virus titrated; HRP-NP17 detection
Sequence (P03466 whole entry): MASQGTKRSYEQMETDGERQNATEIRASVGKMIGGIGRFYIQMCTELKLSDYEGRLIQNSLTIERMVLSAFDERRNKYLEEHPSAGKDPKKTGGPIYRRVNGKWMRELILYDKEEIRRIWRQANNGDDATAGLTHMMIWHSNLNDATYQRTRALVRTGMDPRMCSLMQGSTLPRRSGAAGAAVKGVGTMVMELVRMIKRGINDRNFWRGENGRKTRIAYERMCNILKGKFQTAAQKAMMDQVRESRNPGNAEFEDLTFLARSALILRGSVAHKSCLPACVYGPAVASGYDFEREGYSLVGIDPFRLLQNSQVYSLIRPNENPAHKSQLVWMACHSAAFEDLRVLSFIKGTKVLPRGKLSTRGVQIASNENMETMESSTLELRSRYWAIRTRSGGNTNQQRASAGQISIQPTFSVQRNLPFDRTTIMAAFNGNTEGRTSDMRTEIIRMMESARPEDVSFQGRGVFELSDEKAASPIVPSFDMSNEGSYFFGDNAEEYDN

BINDER: NP21 (antibody, V domains shown) VH: EVQLVESGGGLVQPGGSLRLSCAASGFTINGYGIHWVRQAPGKGLEWVAGIWPYGGSTFYADSVKGRFTISADTSKNTAYLQMNSLRAEDTAVYYCARFYNNHGGIMDYWGQGTLVTVSS VL: DIQMTQSPSSLSASVGDRVTITCRASQDVYFYVAWYQQKPGKAPKLLIYGSRWLYSGVPSRFSGSGSGTDFTLTISSLQPEDFATYYCQQYSNFPVTFGQGTKVEIKR
EC50: 0.815 nM
